From: patent US20240368275A1

TEST SYSTEM: T1, human Nectin4-Fc fusion protein (human, UniProt Q96NY8 32-349)
T1 construct: Recombinant protein coated in the scFv ELISA and captured on the anti-hFc chip in the scFv SPR; also called recombinant Nectin4-Fc fusion protein; human Nectin4-Fc protein; not shown: Fc part
T1 sequence (looked up): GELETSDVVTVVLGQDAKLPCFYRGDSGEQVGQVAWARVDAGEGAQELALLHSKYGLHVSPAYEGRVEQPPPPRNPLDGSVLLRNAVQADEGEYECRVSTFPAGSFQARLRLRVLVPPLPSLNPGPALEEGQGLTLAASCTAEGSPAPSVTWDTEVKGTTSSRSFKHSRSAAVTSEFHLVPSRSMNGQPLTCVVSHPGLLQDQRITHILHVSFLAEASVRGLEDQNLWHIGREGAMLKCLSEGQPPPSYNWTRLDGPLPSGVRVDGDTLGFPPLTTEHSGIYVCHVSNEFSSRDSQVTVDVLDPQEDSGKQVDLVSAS
TEST NAME: SPR Biacore T200, Nectin4-Fc captured on anti-hFc chip, scFv injected
Description: Kinetic analysis of anti-Nectin4 scFvs has been assessed by SPR technology with Biacore T200. The assay was run with Biacore T200 control software version 2.0. Anti-human Fc antibody was immobilized on flow cell 1 and 2 of CM5 sensor chip. […] The kinetics of scFvs binding to Nectin4 protein was analyzed with Biacore T200 evaluation software version 3.0. […]
Please provide measured kon for the entries that follow.
Answers are plain numbers, in M⁻¹ s⁻¹.

Answered examples (3):
BINDER	kon, M⁻¹ s⁻¹
2020EP034-B09 scFv (scFv, V domains shown) VH: EVQLVQSGAEVKKPGASVKVSCKASGYTFTGYYMHWVRQAPGQGLEWMGRINPNSGGTNYAQKFQGRVTMTRDTSISTAYMELSGLRSDDTAVYFCARVTYNIGWYIDYWGQGTLVTVSS VL: QAVVTQPPSVSVAPGKTATITCGGNNIGSKGVHWYQQKPGQAPVLVIYYDTDRPSGIPERLSGSNSGNTATLTISRVEAGDEADYYCQVWDSSSDHPVFGGGTKLTVL	122000
2021EP030-F02 scFv (scFv, V domains shown) VH: QVQLQESGPGLVKPSETLSLTCTVSGGSISSSSYYWGWIRQPPGKGLEWIGSIYYSGSTYYNPSLKSRVTISVDTSKNQFSLKLSSVTAADTAVYYCARQANQVVPAAIPWAKPGGTPPNWFDPWGQGTLVTVSS VL: QLVLTQPPSVSVAPGETARITCGGNNIGSKSVHWYQQKPGQAPVLVIYYDSARPSGIPERVSGSNSGNTATLTISRVEAGDEADYYCQVWDSSSDHPRVFGTGTKLTVL	116000
2021EP023-D06 scFv (scFv, V domains shown, Purified scFv with C-terminal flag and 6xHis tag) VH: QVQLVESGAEVKKPGSSVKVSCKASGGTFSSYAISWVRQAPGQGLEWMGGIIPIFGTANYAQKFQGRVTITADESTSTAYMELSSLRSEDTAVYYCARSRPVRGAYYWGQGTLVTVSS VL: DIQMTQSPSSLSASVGDRVTITCRASQIVNSNYLNWYQQKPGKAPNLLIYGVSNLQVGVPSRFSGSGSGTDFTLSISSLQVEDSATYYCQQSYTTPRYSFGQGTKLEIRR	480000

// below: kon requested for another binder
For record 2021EP030-C11 scFv (scFv, V domains shown) VH: QMQLVQSKPEVKKPGTSVKVSCKASGFTFTSSAVQWVRQARGQRLEWIGWIVVGSGNTNYAQKFQERVTITRDMSTSTAYMELSSLRSEDTAVYYCAADGDYDIEGALDYWGQGTLVTVSS VL: EIVLTQSPAILSLSPGERATLSCRASQSVSSYLAWYQQKPGQAPRLLIYDASNRATGIPARFSGSGSGTDFTLTISSLEPEDFAVYYCQQRSNWITFGGGTKVEIK the listed kon is 4710
